Origin of measurements: ChEMBL document CHEMBL4680100

System Under Test: Androgen receptor (Homo sapiens, UniProt P10275)
Sequence (P10275 whole entry): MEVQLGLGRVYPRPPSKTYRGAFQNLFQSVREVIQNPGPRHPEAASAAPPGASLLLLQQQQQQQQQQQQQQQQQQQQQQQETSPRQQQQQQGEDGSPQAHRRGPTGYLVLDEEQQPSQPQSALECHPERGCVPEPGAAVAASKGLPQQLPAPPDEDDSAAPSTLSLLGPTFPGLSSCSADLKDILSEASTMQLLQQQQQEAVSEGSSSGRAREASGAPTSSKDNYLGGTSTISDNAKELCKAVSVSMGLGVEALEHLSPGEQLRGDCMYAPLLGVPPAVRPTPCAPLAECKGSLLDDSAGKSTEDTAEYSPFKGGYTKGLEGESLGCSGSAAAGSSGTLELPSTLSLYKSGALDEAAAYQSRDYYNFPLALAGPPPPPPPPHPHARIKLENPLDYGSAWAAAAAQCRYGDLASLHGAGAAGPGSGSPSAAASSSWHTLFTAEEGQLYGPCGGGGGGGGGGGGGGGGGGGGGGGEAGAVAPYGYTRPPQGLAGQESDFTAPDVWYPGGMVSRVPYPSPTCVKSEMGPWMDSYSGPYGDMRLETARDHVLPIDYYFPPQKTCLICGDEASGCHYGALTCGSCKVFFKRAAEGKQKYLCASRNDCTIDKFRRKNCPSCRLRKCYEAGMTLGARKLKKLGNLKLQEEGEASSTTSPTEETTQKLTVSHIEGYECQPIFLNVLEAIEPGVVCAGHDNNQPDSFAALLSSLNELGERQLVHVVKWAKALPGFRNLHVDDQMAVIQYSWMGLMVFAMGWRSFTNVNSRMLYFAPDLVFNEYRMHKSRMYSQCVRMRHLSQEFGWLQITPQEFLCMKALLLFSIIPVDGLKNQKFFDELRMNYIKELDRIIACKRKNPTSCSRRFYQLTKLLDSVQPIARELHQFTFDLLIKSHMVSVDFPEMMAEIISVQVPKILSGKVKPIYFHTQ
Result Type: pIC50
// field semantics: pIC50 = negative decimal log of concentration (mol/L)

Inquiry: Determine from records and report pIC50 for CC1(CO)NC(=O)N(c2ccc(F)c(C(F)(F)F)c2)C1=O (configuration not stated)
Reply text: 5.32

Inquiry: Determine from records and report pIC50 for `CC1(C)NC(=O)N(Cc2ccc(F)c(C(F)(F)F)c2)C1=O`
Reply text: 5.38

Inquiry: Determine from records and report pIC50 for `O=C1NC2(CCCC2)C(=O)N1c1ccc(F)c(C(F)(F)F)c1`
Reply text: 6.00

Inquiry: Determine from records and report pIC50 for `O=C1NC2(CCCCC2)C(=O)N1c1ccc(F)c(C(F)(F)F)c1`
Reply text: 5.38

Inquiry: Determine from records and report pIC50 for `CC1(C)NC(=O)N(c2cccnc2)C1=O`
Reply text: 5.02

----------
Tested on: Schistosoma mansoni
Method Description: Antischistosomal activity against Schistosoma mansoni infected in NMRI mouse assessed as reduction in total worm burden at 100 mg/kg, po administered as single dose starting on day 49 post-infection and measured at 28 days post treatment relative to control
Format: functional
Set-up: scale not given: the % may be the effect or the level left
Setup Conditions: time 28 day
Please mark true if the recorded Activity is equal to or greater than 40%, and false if it falls below.

Inquiry: Does the reported Activity for `CC1(C)C(=O)N(c2ccc(F)c(C(F)(F)F)c2)C(=O)N1S(=O)(=O)c1ccccc1` fall at or above the 40% mark?
Reply text: true

Inquiry: Does the reported Activity for `CC1(C)C(=O)N(c2ccc(F)c(C(F)(F)F)c2)C(=O)N1CCc1ccccc1` fall at or above the 40% mark?
Reply text: true

Inquiry: Does the reported Activity for `CC1(C)CC(=O)N(c2ccc(F)c(C(F)(F)F)c2)C1=O` fall at or above the 40% mark?
Reply text: true

Inquiry: Does the reported Activity for `CC(C)(NC(=O)Nc1ccc(F)c(C(F)(F)F)c1)C(=O)O` fall at or above the 40% mark?
Reply text: true

Inquiry: Does the reported Activity for `CC1(C)NC(=O)N(c2ccnc(C(F)(F)F)c2)C1=O` fall at or above the 40% mark?
Reply text: true

Inquiry: Does the reported Activity for `CC1(C)CNC(=O)N(c2ccc(F)c(C(F)(F)F)c2)C1=O` fall at or above the 40% mark?
Reply text: false

Inquiry: Does the reported Activity for `CN1C(=O)N(c2ccc(F)c(C(F)(F)F)c2)C(=O)C1(C)C` fall at or above the 40% mark?
Reply text: true

Inquiry: Does the reported Activity for `O=C1NC2(CCCCC2)C(=O)N1c1ccc(F)c(C(F)(F)F)c1` fall at or above the 40% mark?
Reply text: true

Inquiry: Does the reported Activity for `Cc1ccc(N2C(=O)NC(C)(C)C2=O)cc1C(F)(F)F` fall at or above the 40% mark?
Reply text: false

Inquiry: Does the reported Activity for `CC1(C)NC(=O)N(c2ccc(Cl)c(C(F)(F)F)c2)C1=O` fall at or above the 40% mark?
Reply text: true

Inquiry: Does the reported Activity for `CCN1C(=O)N(c2ccc(F)c(C(F)(F)F)c2)C(=O)C1(C)C` fall at or above the 40% mark?
Reply text: true

Inquiry: Does the reported Activity for `CC1(C)OC(=O)N(c2ccc(F)c(C(F)(F)F)c2)C1=O` fall at or above the 40% mark?
Reply text: false

Inquiry: Does the reported Activity for `CC1(C)NC(=O)N(c2cccnc2)C1=O` fall at or above the 40% mark?
Reply text: false

Inquiry: Does the reported Activity for `CC1(C)NC(=O)N(Cc2ccc(F)c(C(F)(F)F)c2)C1=O` fall at or above the 40% mark?
Reply text: true

Inquiry: Does the reported Activity for `CC1(C)NC(=O)N(c2cccc(C(F)(F)F)c2)C1=O` fall at or above the 40% mark?
Reply text: true

Inquiry: Does the reported Activity for `CN(C)C(=O)c1cc(N2C(=O)NC(C)(C)C2=O)ccc1F` fall at or above the 40% mark?
Reply text: false

Inquiry: Does the reported Activity for `CC1(C)NC(=O)N(c2cnccn2)C1=O` fall at or above the 40% mark?
Reply text: true

Inquiry: Does the reported Activity for `CC1(C)NC(=O)N(c2ccc(C(F)(F)F)nc2)C1=O` fall at or above the 40% mark?
Reply text: false

Inquiry: Does the reported Activity for `CC1(C)CC(=O)N(c2ccc(F)c(C(F)(F)F)c2)C(=O)N1` fall at or above the 40% mark?
Reply text: true
